System: HCC-2998 colon
Assay: NCI-60 one-dose screen, 48 h (100 = growth as untreated, 0 = no growth, -100 = all killed)
Conditions: 10 µM unless noted
Compounds without any hit were thinned out: in the full panel of roughly 83,000, 20% have a hit. Calls of active or inactive are those of the source. How the source made its calls: active means growth percent below 10; inactive means the rest.
Kindly supply the reported growth values for the records listed here.

Lookup: Quick check: growth of CCOC(=O)c1c(SC)nn(-c2cc(=O)[nH]c3ccc(Br)cc23)c1N ?
Found: 102% (inactive)

Lookup: Quick check: growth of O=S(=O)(NCCNc1nccc(-c2c(-c3ccc(F)c(O)c3)nc3sccn23)n1)c1ccccc1 ?
Found: 95% (inactive)

Lookup: Quick check: growth of Fc1ccc(C2CC(c3cccc(Nc4ccncc4)c3)=NN2c2ccc(Cl)cc2)cc1 (centres undefined) ?
Found: 16.7% (inactive)

Lookup: Quick check: growth of COc1cc(NCC(O)CN(CC(C)C)C2CCCC2)c2ncccc2c1 (centres undefined) ?
Found: 97.3% (inactive)

Lookup: Quick check: growth of Cc1cccc(C)c1-c1cc(Cc2ccc(Cl)cc2)c(=O)[nH]n1 ?
Found: 86.4% (inactive)

Lookup: Quick check: growth of CCCCCCCCCCCCCCCC(=O)OC[C@@]1(O)C[C@@]23CC[C@@H]4C(C)(C)CCC[C@@]4(C)[C@@H]2CC[C@H]1C3 ?
Found: 118% (inactive)

Lookup: Quick check: growth of CCCCCOc1ccc(/C=N/Nc2cc(C)nc3ccc(Br)cc23)cc1 ?
Found: -58.3% (active)

Lookup: Quick check: growth of Cc1cc(C)c(C=O)c(C)c1 ?
Found: 108% (inactive)

Lookup: Quick check: growth of COc1cc(OC)c(/C=C/C(=O)c2ccc(Nc3ncnc4ccccc34)cc2)c(OC)c1 ?
Found: 38.3% (inactive)

Lookup: Quick check: growth of COc1ccc(C(=O)c2cc(C)c(OC)c(C)c2)c(OC)c1O ?
Found: 16.8% (inactive)

Lookup: Quick check: growth of CCCCCCCC(=O)Nc1nc2[nH]c(CN3CCN(Cc4cccc(I)c4)CC3)c(CN3CCN(Cc4cccc(I)c4)CC3)c2c(=O)[nH]1 ?
Found: -94.6% (active)

Lookup: Quick check: growth of CC1CCN(C(=O)OCc2nc3nc(Cl)nc(N4CCOCC4)c3[nH]2)CC1 ?
Found: 2.05% (active)

Lookup: Quick check: growth of CCCCCCNC(=O)Oc1ccc(/C(=C(/CC)Cc2ccccc2)c2ccc(OCCN(CC)CC)cc2)cc1 ?
Found: 59.5% (inactive)

Lookup: Quick check: growth of O=C(CN1CCOCC1)Nc1ccc2ncnc(Nc3ccc(OCc4cccc(F)c4)c(Cl)c3)c2c1 ?
Found: 88.6% (inactive)

Lookup: Quick check: growth of C=C(C)[C@H]1CC/C(C)=C/CC[C@]2(C)O[C@H]2CC/C(COC(=O)[C@@H](OC(C)=O)[C@H](NC(=O)c2ccccc2)c2ccccc2)=C\[C@@H]1O ?
Found: 96.5% (inactive)

Lookup: Quick check: growth of Fc1ccc2nc3c(cc2c1)CSc1nnc(-c2ccc[nH]c2=S)n1N3 ?
Found: 103% (inactive)

Lookup: Quick check: growth of COc1cc2nnn3c4ncccc4c(N=O)c3c2cc1OC ?
Found: 106% (inactive)

Lookup: Quick check: growth of CCCCCCC/C=C/[C@H]1O[C@]2(O)C(=O)C=C3C[C@@H](O[C@@H]4O[C@H](CO)[C@@H](O)C(O)[C@@H]4O)C[C@@H]3[C@H]2C=C1C (some centres undefined) ?
Found: 32.8% (inactive)

Lookup: Quick check: growth of Nc1ncc(C#Cc2cncc(NC(=O)c3cccc(C(F)(F)F)c3)c2)c2cccnc12 ?
Found: 47.1% (inactive)

====

Tested on: SN12C renal
Assay: NCI-60 one-dose screen, 48 h
Details: 10 µM unless noted
About 83,000 compounds went through this panel and 20% of them were active in at least one assay; those are over-represented in the sample as a whole. Active and inactive are the calls of the source. The calls were made as follows: active = growth percent below 10; inactive = the rest.
Form entry, call: pick from y for active, n for inactive

Lookup: Outcome? Cc1ccccc1-c1cc(Cc2ccc(F)cc2)c(=O)[nH]n1
Found: n

Lookup: Outcome? CC(=O)Nc1ccc(C(=O)Nc2cc(-c3ccccc3)ccc2N)cc1
Found: n

Lookup: Outcome? CC(C)CN(C(=O)c1ccc(Cl)cc1)c1c(N)n(CC(C)C)c(=O)[nH]c1=O
Found: n

Lookup: Outcome? CCC(C)N(CCNc1cc(OC)cc2cccnc12)CCC(C)C (stereo unspecified)
Found: n

Lookup: Outcome? O=C(Nc1ccccc1)Oc1ccccc1-c1ccccc1
Found: n

Lookup: Outcome? CN1CCN(C(=O)OCc2nc3c(N4CCOCC4)nc(-c4ccccc4)nc3n2C)CC1
Found: y

Lookup: Outcome? O=CNc1cc(Cl)cc(Cl)c1
Found: n

Lookup: Outcome? Cc1ccc(C2CC(c3cccc(Nc4ccncc4)c3)=NN2c2ccc(Cl)cc2)cc1 (stereo unspecified)
Found: y

Lookup: Outcome? CCOC(=O)c1c(O)cc(-c2ccccc2)cc1-c1sc(N(C)Cc2ccccc2)nc1Cl
Found: n

Lookup: Outcome? COc1ccc(/C=C/C(=O)c2ccc(OC)c(OC)c2)cc1O
Found: n

Lookup: Outcome? O=C(O)CCCCCCCCCCCCCCC(=O)O
Found: n

Lookup: Outcome? CC(c1ccccc1)n1ccnc1CO (stereo unspecified)
Found: n

Lookup: Outcome? COc1cc(/C=C/C(=O)c2c(C)oc3nc[nH]c(=O)c23)ccc1O
Found: n

Lookup: Outcome? NNC(=O)/C(=C\c1ccc([N+](=O)[O-])cc1)CC(=O)c1ccc(Cl)c(Cl)c1
Found: n

Lookup: Outcome? COc1ccc(NC(=O)c2sc3nc(C)c(C(O)c4ccc(OC)cc4)cc3c2N)cc1 (stereo unspecified)
Found: n

Lookup: Outcome? CN1CCN(c2ccc3nc(-c4cc(C(C)(C)C)c(O)c(C(C)(C)C)c4)[nH]c3c2)CC1
Found: n

Lookup: Outcome? Cc1ccccc1CNc1ccc(N2CCOCC2)cc1
Found: n

Lookup: Outcome? CC(=O)[C@@H]1CC[C@]2(C(N)=O)CC[C@]3(C)[C@H](CC[C@@H]4[C@@]5(C)CCC(=O)C(C)(C)[C@@H]5CC[C@]43C)[C@@H]12
Found: n

Lookup: Outcome? O=C1c2cccnc2C(=O)c2nc3cc(N4CCN(C5CC5)CC4)ccc3nc21
Found: y

Lookup: Outcome? COc1nc(N)nc(-n2c(-c3ccc(C)cc3)nc3ccccc32)c1NCc1ccc(C)cc1
Found: n

Lookup: Outcome? COc1cccc(CCC(=O)c2cc3c(N)c(C(=O)Nc4ccccc4)sc3nc2C)c1
Found: n

====

Tested on: NCI-H23 lung
Assay: NCI-60 one-dose screen, 48 h (100 = growth as untreated, 0 = no growth, -100 = all killed)
Conditions: 10 µM unless noted
Compounds without any hit were thinned out: in the full panel of roughly 83,000, 20% have a hit.
readout.kind: growth (%)
Give just the number in %; leave the unit off.

Lookup: Quick check: growth of Cc1cc2cc3cc(C)c(N)cc3[n+](C)c2cc1N ?
Found: 0.672

Lookup: Quick check: growth of COc1ccc(CC(C)=C(c2ccc(OCCN(C)C)cc2)c2ccc(OCCN(C)C)cc2)cc1 ?
Found: 89.3

Lookup: Quick check: growth of COc1ccc(NC(=O)c2sc3nc(C)c(C(O)c4ccc(OC)cc4)cc3c2N)cc1 (stereo not given) ?
Found: 36.2

Lookup: Quick check: growth of Cc1ccc(C(=O)Nc2ccccc2C(=O)N/N=C(\c2ccccc2)c2ccccn2)cc1 ?
Found: 32.6

Lookup: Quick check: growth of CC(=O)Nc1ccc(C(=O)Nc2cc(-c3ccccc3)ccc2N)cc1 ?
Found: 86.4

====

Test system: MDA-MB-435 melanoma
Test: NCI-60 one-dose screen, 48 h
Conditions: 10 µM unless noted
Compounds without any hit were thinned out: in the full panel of roughly 83,000, 20% have a hit. Calls of active or inactive are those of the source. How the source made its calls: active means growth percent below 10; inactive means the rest.
Form entry, call: pick from t for active, f for inactive

Lookup: Outcome? C/C(=C(/c1ccccc1)c1ccc(OCC(O)CN2CCOCC2)cc1)c1ccccc1 (configuration not stated)
Found: f

Lookup: Outcome? Nc1c(C(=O)Nc2ccc(Cl)cc2)cc(-c2nc3ccccc3s2)c(=O)n1NS(=O)(=O)c1ccc(Cl)cc1
Found: f

Lookup: Outcome? CCOc1ccc(/C=N/Nc2cc(C)nc3ccc(Cl)cc23)cc1
Found: f

Lookup: Outcome? COC(=O)Nc1ccc(NC(=O)OC)cc1
Found: f

Lookup: Outcome? COc1cc(CCNc2nc3cc(N)cc(N)c3nc2-c2ccccc2)cc(OC)c1
Found: t

Lookup: Outcome? O=S(=O)(c1ccc(N/N=C\c2ccccc2)cc1)c1ccc(N/N=C/c2ccccc2)cc1
Found: f

Lookup: Outcome? Clc1ccc(N2N=C(c3cccc(Nc4ccncc4)c3)CC2c2ccc(Br)cc2)cc1 (configuration not stated)
Found: t

Lookup: Outcome? Cc1c2c(cc[n+]1Cc1ccccc1)c1ccc(OCC3CCCCC3)cc1n2CC1CCCCC1
Found: t

Lookup: Outcome? O=C(N/N=C/c1cccc(O)c1)c1ccccc1Nc1cccc(C(F)(F)F)c1
Found: f

Lookup: Outcome? O=S(=O)(NCCCNc1nccc(-c2c(-c3ccccc3)nc3occn23)n1)c1ccc(Cl)cc1
Found: f

Lookup: Outcome? O=C1Nc2c(ccc(Cl)c2Cl)/C1=C/c1ccc(F)cc1
Found: f

Lookup: Outcome? COc1cc(NCC(O)CN(CC(C)C)CC(C)C)c2nc(C)ccc2c1 (configuration not stated)
Found: f

Lookup: Outcome? COc1ccc(C(=O)/C=C/c2c(OC)cc(OC)cc2OC)c(OC)c1
Found: t

Lookup: Outcome? Fc1ccccc1CSc1ncnc2nc[nH]c12
Found: f

Lookup: Outcome? CCCNC(=O)Oc1ccc(/C(=C(\C)c2ccccc2)c2ccc(OCCN3CCCCC3)cc2)cc1
Found: f

Lookup: Outcome? COc1nc(N)nc(-n2c(-c3ccc(C)cc3)nc3ccccc32)c1NCc1ccc(C)cc1
Found: f

Lookup: Outcome? CC1(C)CCCN1CCCN1c2ccccc2Sc2ccc(Cl)cc21
Found: f

Lookup: Outcome? COC(=O)C(c1ccccc1)C(CC(=O)c1ccccc1)c1ccccc1 (configuration not stated)
Found: f

Lookup: Outcome? CC(O)(CO)c1ccccc1 (configuration not stated)
Found: f

Lookup: Outcome? C#Cc1cccc(NC(=O)Nc2cccc(N=C=S)c2)c1
Found: f

Lookup: Outcome? C#Cc1cccc(NC(=O)Nc2ccc(NC(=O)CCl)cc2)c1
Found: f

Lookup: Outcome? CCCCCCN(C)Cc1ccc(OCCOc2ccc(CN(C)CCCCCC)cc2)cc1
Found: t
